These entries and their values trace back to ChEMBL document CHEMBL3988442.

Tested on: Wolbachia pipientis
Test: Anti-Wolbachia Cell-Based Screen
Type: functional
Set-up: scale not given: in the data most compounds retested in dose-response had high values
Conditions: 5 µM
In all, about 48,000 compounds went through this assay and about 13,000 (27%) showed an effect of 50% or more. This is one part of the list.
Attribute: Percent Effect
The figure you give is taken to be in %; do not add the unit.

Example cases with answers are listed next.
# COMPOUND, READING
rows = [
    ("Cc1cccc(C)c1OCCC(=O)N1CCC(c2nncn2C)CC1", 0.8719),
    ("c1ccc(OCCN2CCC(n3cncn3)CC2)cc1", 93.12),
    ("O=C(NCc1ccco1)[C@@]12CCO[C@@H]1CCN(C1CCC1)C2.O=C(O)C(F)(F)F", -7.517),
    ("CC(C)c1nccn1-c1cncc(C2CCCN(C3CCCCC3)C2)n1 (configuration not stated)", 98.48),
    ("Clc1cc(Cl)cc(OCCN2CCC(n3cncn3)CC2)c1", 103.8),
]

# Percent Effect (compound: Cc1cc(C)cc(OCCC(=O)N2CCCC(n3cncn3)C2)c1 (configuration not stated) ) is -4.983

# Percent Effect (compound: C=C(C)COc1ccccc1CN1CCC(NC(C)=O)CC1 ) is 100.9

# Percent Effect (compound: NC(=O)C1CCN(C(=O)c2ccccc2OCc2ccccc2Cl)CC1 ) is 5.008

# Percent Effect (compound: Cc1ccc(NCCCNC(=O)C2CCCN(Cc3ccco3)C2)nc1 (configuration not stated) ) is -3.633

# Percent Effect (compound: CNC(=O)c1cc(-n2ccnc2-c2cnc(N(C)C)nc2)ccc1OC ) is -13

# Percent Effect (compound: C=C(C)COc1ccccc1C(=O)N1CCC2(CC1)CN(C)CCN2C ) is 12.34

# Percent Effect (compound: CSc1ccc(OCCN2CCC(n3cncn3)CC2)cc1 ) is 98.24

* * *

Test system: Wolbachia pipientis
Assay: Anti-Wolbachia Cell-Based Screen
Format: functional
Set-up: scale not given: in the data most compounds retested in dose-response had high values
Conditions: 5 µM
The whole screen tested about 48,000 compounds, of which about 13,000 (27%) showed an effect of 50% or more. The list shows a part of the results.
Attribute: Percent Effect
The figure you give is taken to be in %; do not add the unit.

Example cases with answers are listed next.
# COMPOUND, Percent Effect / %
rows = [
    ("Cc1nc(Cn2c3c(ccc2=O)CC(NC(N)=O)CC3)cs1 (stereo not drawn)", 99.56),
    ("Cc1cnc(C(=O)N2CC[C@H]3[C@@H]2CCC(=O)N3c2cccnc2)cn1.O=C(O)C(F)(F)F", 0.08604),
    ("C/C=C(/C)C(=O)NS(=O)(=O)c1ccc(C(F)(F)F)cn1", 4.736),
]

# Percent Effect (compound: N#Cc1c(Cl)nsc1NCc1ccc(N2CCC(CO)CC2)cc1 ) is -1.187

# Percent Effect (compound: CCc1nc(C2CCCN2C(=O)CCc2ccc3c(c2)OCO3)no1 (stereo not drawn) ) is -10.43

# Percent Effect (compound: Cc1ccc(C(=O)N2CC[C@H]3[C@@H]2CCC(=O)N3c2cccnc2)o1.O=C(O)C(F)(F)F ) is -21.39

# Percent Effect (compound: Cc1cc(C)n(CC2CCCCN2C(=O)c2ccc(C(N)=O)cc2)n1 (stereo not drawn) ) is 111.1
